Tested on: THP-1 viability, CellTiter-Glo luminescence, 72 h
Experiment: THP-1 cell cytotoxicity, dose response, cytotoxicity control for Salmonella PhoP regulon inhibitors, S. typhimurium screen hits (AID 2253)
Quantity: EC50

Test Smiles: COc1ccc(NS(=O)(=O)c2cc(C)ccc2NC(=O)c2cc(C)oc2C)cc1
EC50: 0.26 µM
//
Test Smiles: O=c1[nH]c(NCc2ccco2)nnc1Cc1ccccc1Cl
EC50: 6.65 µM
//
Test Smiles: Cc1ccc(N=Nc2ccc(O)c(/C=N\NC(=O)c3ccc(N)cc3)c2)cc1C
EC50: 3.29 µM

Enquiry: Param readout= EC50; system= THP-1 viability, CellTiter-Glo luminescence, 72 h; entry= `O=S(=O)(Nc1ccc(N=Nc2ccc(O)c3ccccc23)cc1)c1ccccc1` ; returns value.
Return: 22 µM

Enquiry: Param readout= EC50; system= THP-1 viability, CellTiter-Glo luminescence, 72 h; entry= `CCCCOc1ccc(Cc2cnc(N)nc2N)cc1` ; returns value.
Return: 41.5 µM

Enquiry: Param readout= EC50; system= THP-1 viability, CellTiter-Glo luminescence, 72 h; entry= `c1ccc(CNc2nc(N3CCN(Cc4ccccc4)CC3)nc3ccccc23)cc1` ; returns value.
Return: 21.6 µM

* * *

Test system: THP-1 viability, CellTiter-Glo luminescence, 72 h
Assay: THP-1 cell cytotoxicity, dose response, cytotoxicity control for Salmonella PhoP regulon inhibitors, S. typhimurium screen hits (AID 2253)
Quantity: EC50

// known answers, use as guide
Compound: C=COC(=O)CSc1snc(SCC(=O)OC)c1C#N
EC50: 32.3 µM
--
Compound: O=C1c2[nH]nc(-c3ccccc3O)c2C(c2ccc(F)cc2)N1Cc1ccco1 (configuration not stated)
EC50: 20 µM
--
Compound: CC(C)C(=O)NC(c1cccc([N+](=O)[O-])c1)c1ccc2cccnc2c1O (configuration not stated)
EC50: 0.51 µM
--
Compound: O=S(=O)(Nc1ccc2ccccc2c1)c1ccccc1
EC50: 47.2 µM
--
Compound: NC1=NC(=Nc2ccc(Cl)cc2)c2ccccc21
EC50: 22.4 µM
--
Compound: O=[N+]([O-])c1cc(CN2CCCC2)c2cccnc2c1O
EC50: 41.2 µM

Enquiry: Which EC50 is reported for this compound? `O=C(Nc1cccc(Cl)c1)Nc1ccc2c(c1)OCO2`
Return: 36.8 µM

Enquiry: Which EC50 is reported for this compound? `O=C(Nc1nc(-c2ccccn2)cs1)c1ccc(Cl)s1`
Return: 0.8 µM

Enquiry: Which EC50 is reported for this compound? COc1ccccc1/C=C1\CCCC2=C1Nc1nnnn1C2c1ccccc1OC (configuration not stated)
Return: 19.6 µM

Enquiry: Which EC50 is reported for this compound? `CC(C)CCNC(=S)Nc1ccc([N+](=O)[O-])cc1`
Return: 16.5 µM

Enquiry: Which EC50 is reported for this compound? CC(C(=O)c1ccc(-c2ccccc2)cc1)[n+]1cccc(NC(=O)c2ccccc2)c1 (configuration not stated)
Return: 19.6 µM

Enquiry: Which EC50 is reported for this compound? Cc1ccc(C(C[N+](=O)[O-])c2c(-c3ccccc3O)[nH][nH]c2=O)cc1 (configuration not stated)
Return: 27.7 µM

Enquiry: Which EC50 is reported for this compound? `Cc1ccc(C=Nc2ccccc2C(N)=O)cc1`
Return: 8.83 µM

* * *

Tested on: THP-1 viability, CellTiter-Glo luminescence, 72 h
Test: THP-1 cell cytotoxicity, dose response, cytotoxicity control for Salmonella PhoP regulon inhibitors, S. typhimurium screen hits (AID 2253)
pEC50: −log10 of the molar value.
Could you label it label 1 if measured pEC50 is 5 or higher, and label 0 otherwise?

Enquiry: Is reported pEC50 greater than or equal to 5 here: `Cc1c(C(=O)Nc2cccc(Cl)c2)c2ccccn2c1CCc1ccncc1`
Return: label 0

Enquiry: Is reported pEC50 greater than or equal to 5 here: O=C1OC(/C(=C\Nc2ccc(F)cc2F)[N+](=O)[O-])c2ccccc21 (stereo not given)
Return: label 0

Enquiry: Is reported pEC50 greater than or equal to 5 here: `CCN1/C(=C/C=C/c2sc3ccccc3[n+]2CC)Sc2ccccc21`
Return: label 1

* * *

# EC50 values compiled below
Test system: THP-1 viability, CellTiter-Glo luminescence, 72 h
Assay: THP-1 cell cytotoxicity, dose response, cytotoxicity control for Salmonella PhoP regulon inhibitors, S. typhimurium screen hits (AID 2253)

Compound: CC(=O)c1ccc(NC(=O)Nc2cccc(Cl)c2)cc1
Result: 20.1 µM

Enquiry: Which EC50 is reported for this compound? `Oc1ccc(CN2CCc3ccccc3C2)c2cccnc12`
Return: 3.39 µM

Enquiry: Which EC50 is reported for this compound? COc1ccc(OCc2n(CC(=O)OC3CC(C)CCC3C(C)C)c3ccccc3[n+]2C)cc1 (stereo unspecified)
Return: 1.6 µM

Enquiry: Which EC50 is reported for this compound? CCCNC1=C(C)C(=O)C2=C(C1=O)C(COC(N)=O)[C@]1(OC)C3NC3CN21 (stereo partly specified)
Return: 10.1 µM

Enquiry: Which EC50 is reported for this compound? O=C1c2ccccc2C2=Nc3ccccc3SC(c3cccc(F)c3)C12 (stereo unspecified)
Return: 8.95 µM

Enquiry: Which EC50 is reported for this compound? `Cc1cc(C)c2nc(NNC(=O)c3ccc(S(=O)(=O)N4CCCCC4)cc3)sc2c1`
Return: 4.69 µM

Enquiry: Which EC50 is reported for this compound? CCCC(=O)NC(c1ccc(N(C)C)cc1)c1ccc2cccnc2c1O (stereo unspecified)
Return: 0.61 µM

Enquiry: Which EC50 is reported for this compound? `Cc1[nH]c2ccccc2c1C(=O)COC(=O)c1ccc([N+](=O)[O-])s1`
Return: 47.5 µM

Enquiry: Which EC50 is reported for this compound? `C/C(=N\NC(=S)Nc1ccc(F)cc1)c1ccc2c(c1)OCCO2`
Return: 10.5 µM

Enquiry: Which EC50 is reported for this compound? `Cc1ccccc1OCCCCCn1ccnc1`
Return: 24.4 µM

* * *

# EC50 values compiled below
Tested on: THP-1 viability, CellTiter-Glo luminescence, 72 h
Assay: THP-1 cell cytotoxicity, dose response, cytotoxicity control for Salmonella PhoP regulon inhibitors, S. typhimurium screen hits (AID 2253)

Compound: c1ccc(CNc2c3c(nc4ccccc24)CCC3)cc1
Study Target: THP-1 viability, CellTiter-Glo luminescence, 72 h
Result: 11.3 µM

Compound: CCCCCc1ccc(OCCOCCn2c[n+](C)c3ccccc32)c(CCCCC)c1
Study Target: THP-1 viability, CellTiter-Glo luminescence, 72 h
Result: 1.35 µM

Enquiry: Param readout= EC50; system= THP-1 viability, CellTiter-Glo luminescence, 72 h; entry= `Cc1ccc(C=Nc2ccccc2C(N)=O)s1` ; returns value.
Return: 10.8 µM

Enquiry: Param readout= EC50; system= THP-1 viability, CellTiter-Glo luminescence, 72 h; entry= `Cc1ccc(S(=O)(=O)/N=C2/C=C(Sc3ncn[nH]3)C(=O)c3ccccc32)cc1` ; returns value.
Return: 2.13 µM

Enquiry: Param readout= EC50; system= THP-1 viability, CellTiter-Glo luminescence, 72 h; entry= `CCC(C)(C)c1ccc(OCCCC[n+]2ccc(C)cc2)c(C(C)(C)CC)c1` ; returns value.
Return: 1.48 µM

Enquiry: Param readout= EC50; system= THP-1 viability, CellTiter-Glo luminescence, 72 h; entry= `CN1C(=O)/C(=C/c2cccn2-c2ccc3ccccc3c2)C(=O)NC1=S` ; returns value.
Return: 16.6 µM

Enquiry: Param readout= EC50; system= THP-1 viability, CellTiter-Glo luminescence, 72 h; entry= `COc1cccc(Nc2nc(-c3sc(NC(=O)c4ccco4)nc3C)cs2)c1` ; returns value.
Return: 40.5 µM

Enquiry: Param readout= EC50; system= THP-1 viability, CellTiter-Glo luminescence, 72 h; entry= `Cc1onc(-c2ccccc2)c1C(=O)NC(=S)NNC(=O)c1ccc(O)cc1O` ; returns value.
Return: 1.87 µM

Enquiry: Param readout= EC50; system= THP-1 viability, CellTiter-Glo luminescence, 72 h; entry= `FC(F)(F)c1ccc2c(c1)N(CCCN1CCN(CCCl)CC1)c1ccccc1S2` ; returns value.
Return: 20.6 µM

Enquiry: Param readout= EC50; system= THP-1 viability, CellTiter-Glo luminescence, 72 h; entry= `Oc1c(Cl)cc(Cl)c2cccnc12` ; returns value.
Return: 12.8 µM

Enquiry: Param readout= EC50; system= THP-1 viability, CellTiter-Glo luminescence, 72 h; entry= `CCCCNCCCOc1cccc(Cl)c1Cl` ; returns value.
Return: 29.2 µM

Enquiry: Param readout= EC50; system= THP-1 viability, CellTiter-Glo luminescence, 72 h; entry= `C=CCNc1ncnc2c1[nH]c1ccc(C)cc12` ; returns value.
Return: 25.8 µM

Enquiry: Param readout= EC50; system= THP-1 viability, CellTiter-Glo luminescence, 72 h; entry= Cc1ccc(SC(c2ccc(C)cc2)C(Cn2cncn2)C(=O)c2ccccc2)cc1 (centres undefined) ; returns value.
Return: 49.8 µM
